Test system: MDA-MB-435 melanoma
assayMethodText: NCI-60 one-dose screen, 48 h
conditionsUsed: 10 µM
The panel holds about 83,000 compounds, 20% with a hit somewhere; the sample as a whole holds those more often. Activity calls are given as the source filed them. Rule for the calls: active = growth percent below 10; inactive = the rest.
// classify into 1 = active, -1 = inactive

Here are 10 molecules together with their reported answers.
>>> discretelabel("Cc1cccc(C)c1NC(=O)c1sc2nc3c(cc2c1N)C(=O)CCC3")
-1
>>> discretelabel("COc1ccc(-c2cc(/C=C/C(=O)c3cc(OC)c(OC)c(OC)c3)[nH]n2)cc1OC")
1
>>> discretelabel("CCOC(=O)N1C=CC2C=CC1C1C=CC=CC2N1C(=O)OCC (configuration not stated)")
1
>>> discretelabel("CN(C)CCN1C(=O)c2cccc3cc(N)cc(c23)C1=O")
-1
>>> discretelabel("ClCC#CCSc1ncnc2c1ncn2CC#CCCl")
1
>>> discretelabel("CC1CC(=O)OC(C)C1 (configuration not stated)")
-1
>>> discretelabel("COc1ccc(Cl)cc1C(=O)Nc1nc2ccc(Cl)cc2s1")
-1
>>> discretelabel("O=S(=O)(NCCCNc1nccc(-c2c(-c3ccc(F)cc3)nc3sccn23)n1)c1ccc2ccccc2c1")
-1
>>> discretelabel("COc1ccc(OC)c2c1C(=O)CC2C (configuration not stated)")
-1
>>> discretelabel("COc1cc(C(=C2O[C@@H]([C@H]3COC(C)(C)O3)[C@H]3OC(C)(C)O[C@@H]23)c2cc(OC)c(OC)c(OC)c2)cc(OC)c1OC")
-1

Query: // return assay outcome for `CCN(CC)CCN1CC(=O)Nc2cc(Cl)ccc21`
Response: -1

Query: // return assay outcome for CCC1(C(C)C)NC(=O)NC1=O (configuration not stated)
Response: -1

Query: // return assay outcome for `COc1ccc(-c2nnc(-c3c(-c4ccccc4)nc4ncccn34)o2)cc1OC`
Response: -1

Query: // return assay outcome for `CN(C)Cc1cn(-c2ncc(-c3ccc(C(F)(F)F)cc3)c(NC3CCCCCC3)n2)nn1`
Response: -1

Query: // return assay outcome for `CCN(CC)CCSCCN(CC)CC`
Response: -1
